system: 843782-103-R-J1-PDC complex spheroid viability; assay: Anticancer human tumor 843782-103-R-J1-PDC patient-derived lung adenocarcinoma cell line growth inhibition [RAS]; details: second compound 0.000949 µM; first compound 10 µM; active = viability on the fitted dose curve at most 10% of control; inactive = the rest
Answer with one of the outcomes yes for active, no for inactive

input: Name the outcome recorded for CC(Nc1ccc2c(c1)OCCn1cc(N3C(=O)OCC3C(F)F)nc1-2)C(N)=O (centres undefined) + CCn1c(-c2cc(N3CCN(C)CC3)cnc2C(C)OC)c2c3cc(ccc31)-c1csc(n1)CC(NC(=O)C1CC1C)C(=O)N1CCCC(N1)C(=O)OCC(C)(C)C2 in the assay.
output: no

input: // param item: CC(C)NCC(C(=O)N1CCN(c2ncnc3c2C(C)CC3O)CC1)c1ccc(Cl)cc1 (centres undefined) + CCn1c(-c2cccnc2C(C)OC)c2c3cc(ccc31)N1CCOC(CC(NC(=O)C(C(C)C)N(C)C(=O)C3(F)CCN(C(=O)C#CC(C)(C)N(C)C)CC3)C(=O)N3CCCC(N3)C(=O)OCC(C)(C)C2)C1 ; yields the recorded call
output: yes

input: Could you check what this test reported for CC1(O)CCCC1n1c(=O)c(C(F)F)cc2cnc(NC3CCN(S(C)(=O)=O)CC3)nc21 (centres undefined) + CCn1c(-c2cc(N3CCN(C)CC3)cnc2C(C)OC)c2c3cc(ccc31)-c1csc(n1)CC(NC(=O)C1CC1C)C(=O)N1CCCC(N1)C(=O)OCC(C)(C)C2 ?
output: yes

input: Tell me the recorded outcome of this test for C[C@@H](NC(=O)c1ncnc(N)c1Cl)c1ncc(C(=O)Nc2cc(C(F)(F)F)c(Cl)cn2)s1 + CCn1c(-c2cccnc2C(C)OC)c2c3cc(ccc31)N1CCOC(CC(NC(=O)C(C(C)C)N(C)C(=O)C3(F)CCN(C(=O)C#CC(C)(C)N(C)C)CC3)C(=O)N3CCCC(N3)C(=O)OCC(C)(C)C2)C1 .
output: no

====

system: 843782-103-R-J1-PDC complex spheroid viability; experiment: Anticancer human tumor 843782-103-R-J1-PDC cell line growth inhibition [RAS]; settings: second compound 10 µM; first compound 0.00316 µM; stronger effect = lower value;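 note: viability read after seven days of compound exposure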
measure_name: viability, T/C (%)
Numeric only. Scale: %

input: If you can, please state the reported viability, T/C value of C=CC(=O)N1CCN(c2nc(OCC3CCCN3C)nc3c(F)c(-c4nc(N)cc(C)c4C(F)(F)F)c(Cl)cc23)C(C)C1 (stereo not drawn) + C#Cc1c(F)ccc2cc(O)cc(-c3ncc4c(N5CC6CCC(C5)N6)nc(OCC56CCCN5CC(F)C6)nc4c3F)c12 .
output: 39.6

input: I have this compound here, CCN1CCN(Cc2ccc(Nc3ncc(F)c(-c4cc(F)c5nc(C)n(C(C)C)c5c4)n3)nc2)CC1 + C#Cc1c(F)ccc2cc(O)cc(-c3ncc4c(N5CC6CCC(C5)N6)nc(OCC56CCCN5CC(F)C6)nc4c3F)c12 , and I need its recorded viability, T/C.
output: 67

input: Requested read-out: viability, T/C. Entry: C=CC(=O)Nc1cc(Nc2nccc(-c3cn(C)c4ccccc34)n2)c(OC)cc1N(C)CCN(C)C + C#Cc1c(F)ccc2cc(O)cc(-c3ncc4c(N5CC6CCC(C5)N6)nc(OCC56CCCN5CC(F)C6)nc4c3F)c12
output: 55.9

====

Tested on: 843782-103-R-J1-PDC complex spheroid viability
Assay: Anticancer human tumor 843782-103-R-J1-PDC cell line growth inhibition [RAS];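 note: viability read after seven days of compound exposure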
Conditions: second compound 10 µM; first compound 0.0316 µM; stronger effect = lower value
Description: RAS pathway inhibitors in Combinations in Complex Spheroids A high-throughput screen of multi-cell type tumor spheroids was designed to identify active combinations of RAS pathway inhibitors and targeted small molecules. Complex spheroids include a stromal component modeled by human endothelial cells (HUVEC) and fibroblasts modeled by human mesenchymal stem cells (MSCs). […] Compounds. […] If the clinical Cmax for an agent had not been determined, the highest concentration tested was 10 microM. […]
Label Fulfilled when viability, T/C < 60%; otherwise Not fulfilled.

input: Decide: viability, T/C of CC(C)NCC(C(=O)N1CCN(c2ncnc3c2C(C)CC3O)CC1)c1ccc(Cl)cc1 (stereo not given) + C#Cc1c(F)ccc2cc(O)cc(-c3ncc4c(N5CC6CCC(C5)N6)nc(OCC56CCCN5CC(F)C6)nc4c3F)c12 strictly below 60%?
output: Not fulfilled

input: Just wondering, is viability, T/C of CCN1CCN(Cc2ccc(Nc3ncc(F)c(-c4cc(F)c5nc(C)n(C(C)C)c5c4)n3)nc2)CC1 + C#Cc1c(F)ccc2cc(O)cc(-c3ncc4c(N5CC6CCC(C5)N6)nc(OCC56CCCN5CC(F)C6)nc4c3F)c12 below 60%?
output: Fulfilled

input: Hello, is viability, T/C of the following compound strictly smaller than 60%? C=CC(=O)Nc1cc(Nc2nccc(-c3cn(C)c4ccccc34)n2)c(OC)cc1N(C)CCN(C)C + C#Cc1c(F)ccc2cc(O)cc(-c3ncc4c(N5CC6CCC(C5)N6)nc(OCC56CCCN5CC(F)C6)nc4c3F)c12
output: Fulfilled

input: Threshold test, viability, T/C < 60%: NC1c2ccccc2OC12CCN(c1cnc3c(N4CCCc5ncccc54)n[nH]c3n1)CC2 (stereo not given) + C#Cc1c(F)ccc2cc(O)cc(-c3ncc4c(N5CC6CCC(C5)N6)nc(OCC56CCCN5CC(F)C6)nc4c3F)c12
output: Fulfilled

input: Below 60% on viability, T/C? Entry CC(Nc1ccc2c(c1)OCCn1cc(N3C(=O)OCC3C(F)F)nc1-2)C(N)=O (stereo not given) + C#Cc1c(F)ccc2cc(O)cc(-c3ncc4c(N5CC6CCC(C5)N6)nc(OCC56CCCN5CC(F)C6)nc4c3F)c12
output: Fulfilled

====

tested on: 843782-103-R-J1-PDC complex spheroid viability; test: Anticancer human tumor 843782-103-R-J1-PDC cell line growth inhibition [RAS]; details: second compound 0.0949 µM; first compound 0.00316 µM; stronger effect = lower value;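 note: viability read after seven days of compound exposure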
For each record, write down the corresponding viability, T/C.
Please reply with the bare figure in % and do not write the unit itself.

input: What value of viability, T/C has been reported for the following molecule? C=CC(=O)N1CCN(c2nc(OCC3CCCN3C)nc3c(F)c(-c4nc(N)cc(C)c4C(F)(F)F)c(Cl)cc23)C(C)C1 (stereo unspecified) + CCn1c(-c2cc(N3CCN(C)CC3)cnc2C(C)OC)c2c3cc(ccc31)-c1csc(n1)CC(NC(=O)C1CC1C)C(=O)N1CCCC(N1)C(=O)OCC(C)(C)C2
output: 15.4

input: Return reported viability, T/C; argument: CCN1CCN(Cc2ccc(Nc3ncc(F)c(-c4cc(F)c5nc(C)n(C(C)C)c5c4)n3)nc2)CC1 + CCn1c(-c2cc(N3CCN(C)CC3)cnc2C(C)OC)c2c3cc(ccc31)-c1csc(n1)CC(NC(=O)C1CC1C)C(=O)N1CCCC(N1)C(=O)OCC(C)(C)C2
output: 17.9

input: Given C=CC(=O)Nc1cc(Nc2nccc(-c3cn(C)c4ccccc34)n2)c(OC)cc1N(C)CCN(C)C + CCn1c(-c2cccnc2C(C)OC)c2c3cc(ccc31)N1CCOC(CC(NC(=O)C(C(C)C)N(C)C(=O)C3(F)CCN(C(=O)C#CC(C)(C)N(C)C)CC3)C(=O)N3CCCC(N3)C(=O)OCC(C)(C)C2)C1 , state its recorded viability, T/C.
output: 73.4

input: Given the molecule CC(C)n1nc(-c2ccc3oc(N)nc3c2)c2c(N)ncnc21 + CCn1c(-c2cccnc2C(C)OC)c2c3cc(ccc31)N1CCOC(CC(NC(=O)C(C(C)C)N(C)C(=O)C3(F)CCN(C(=O)C#CC(C)(C)N(C)C)CC3)C(=O)N3CCCC(N3)C(=O)OCC(C)(C)C2)C1 , what is its reported viability, T/C?
output: 70.5

input: Return reported viability, T/C; argument: O=C(c1ccc(F)c(F)c1Nc1ccc(I)cc1F)N1CC(O)([C@@H]2CCCCN2)C1 + CCn1c(-c2cc(N3CCN(C)CC3)cnc2C(C)OC)c2c3cc(ccc31)-c1csc(n1)CC(NC(=O)C1CC1C)C(=O)N1CCCC(N1)C(=O)OCC(C)(C)C2
output: 13

input: // returns reported viability, T/C for input CCN1CCN(Cc2ccc(Nc3ncc(F)c(-c4cc(F)c5nc(C)n(C(C)C)c5c4)n3)nc2)CC1 + CCn1c(-c2cccnc2C(C)OC)c2c3cc(ccc31)N1CCOC(CC(NC(=O)C(C(C)C)N(C)C(=O)C3(F)CCN(C(=O)C#CC(C)(C)N(C)C)CC3)C(=O)N3CCCC(N3)C(=O)OCC(C)(C)C2)C1
output: 84.2

====

test system: 843782-103-R-J1-PDC complex spheroid viability; experiment: Anticancer human tumor 843782-103-R-J1-PDC cell line growth inhibition [RAS]; settings: second compound 0.0949 µM; first compound 0.1 µM; stronger effect = lower value;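 note: viability read after seven days of compound exposure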
measure_name: viability, T/C (%)
Entry rule: numbers only, all in %.

input: // viability, T/C lookup, key: CC(Nc1ccc2c(c1)OCCn1cc(N3C(=O)OCC3C(F)F)nc1-2)C(N)=O (centres undefined) + CCn1c(-c2cccnc2C(C)OC)c2c3cc(ccc31)N1CCOC(CC(NC(=O)C(C(C)C)N(C)C(=O)C3(F)CCN(C(=O)C#CC(C)(C)N(C)C)CC3)C(=O)N3CCCC(N3)C(=O)OCC(C)(C)C2)C1
output: 32.5

input: Give the measured viability, T/C of CC(Nc1ccc2c(c1)OCCn1cc(N3C(=O)OCC3C(F)F)nc1-2)C(N)=O (centres undefined) + CCn1c(-c2cc(N3CCN(C)CC3)cnc2C(C)OC)c2c3cc(ccc31)-c1csc(n1)CC(NC(=O)C1CC1C)C(=O)N1CCCC(N1)C(=O)OCC(C)(C)C2 .
output: 10.8

input: Report viability, T/C for C[C@@H](NC(=O)c1ncnc(N)c1Cl)c1ncc(C(=O)Nc2cc(C(F)(F)F)c(Cl)cn2)s1 + CCn1c(-c2cccnc2C(C)OC)c2c3cc(ccc31)N1CCOC(CC(NC(=O)C(C(C)C)N(C)C(=O)C3(F)CCN(C(=O)C#CC(C)(C)N(C)C)CC3)C(=O)N3CCCC(N3)C(=O)OCC(C)(C)C2)C1 please.
output: 86.1

input: Given the entry CCN1CCN(Cc2ccc(Nc3ncc(F)c(-c4cc(F)c5nc(C)n(C(C)C)c5c4)n3)nc2)CC1 + CCn1c(-c2cc(N3CCN(C)CC3)cnc2C(C)OC)c2c3cc(ccc31)-c1csc(n1)CC(NC(=O)C1CC1C)C(=O)N1CCCC(N1)C(=O)OCC(C)(C)C2 , report its measured viability, T/C.
output: 15.2
